studySystem: K-Ras G12C (Homo sapiens (Human), UniProt P01116+P62937, G12C)
Sequence (P01116-2 other isoform, or with tags, fused parts or gaps G12C, one chain of several): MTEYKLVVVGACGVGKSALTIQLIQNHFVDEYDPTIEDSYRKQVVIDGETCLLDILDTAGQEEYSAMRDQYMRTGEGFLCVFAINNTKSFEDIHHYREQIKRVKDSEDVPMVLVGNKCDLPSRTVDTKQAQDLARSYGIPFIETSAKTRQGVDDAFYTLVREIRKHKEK
experimentSummary: Ras-Raf (BRAF RBD) disruption / FRET / MOA assay, KRAS G12C
Format: biochemical
testConditions: KRAS G12C; Ras-Raf disruption/FRET/MOA assay; read-out: IC50* KRAS G12C FRET data
Collected IC50 values appear next to each entry.

C=CC(=O)N1CCN(C(=O)N(C)[C@H](C(=O)N[C@H]2Cc3nc(cs3)-c3ccc4c(c3)c(c(-c3cccnc3[C@H](C)OC)n4CC(F)(F)F)CC(C)(C)COC(=O)[C@@H]3CCCN(N3)C2=O)C(C)C)CC1 (atropisomer, axis not shown)    10 to 100 nM
CO[C@@H](C)c1ncccc1-c1c2c3cc(ccc3n1CC(F)(F)F)-c1nc(cs1)C[C@H](NC(=O)[C@H](C(C)C)N(C)C(=O)[C@H]1CCN(C(=O)C#CC(C)(C)N3CCC3)C1)C(=O)N1CCC[C@H](N1)C(=O)OCC(C)(C)C2 (atropisomer, axis not shown)    10 to 100 nM
C=CC(=O)N1C[C@@H](C)N(C(=O)N(C)[C@H](C(=O)N[C@H]2Cc3nc(cs3)-c3ccc4c(c3)c(c(-c3cccnc3[C@H](C)OC)n4CC)CC(C)(C)COC(=O)[C@@H]3CCCN(N3)C2=O)C(C)C)[C@H](C)C1 (atropisomer, axis not shown)    < 10 nM

API: the following record is the query input.
Give the measured IC50 of CCn1c(-c2cnccc2[C@H](C)OC)c2c3cc(ccc31)-c1cccc(c1)C[C@H](NC(=O)[C@H](C(C)C)N(C)C(=O)[C@H]1CCN(C(=O)C#CCN(C)C)C1)C(=O)N1CCC[C@H](N1)C(=O)OCC(C)(C)C2 .
< 10 nM

* * *

studySystem: KRAS WT (Homo sapiens (Human), UniProt P01116+P62937)
Sequence (P01116-2 other isoform, or with tags, fused parts or gaps): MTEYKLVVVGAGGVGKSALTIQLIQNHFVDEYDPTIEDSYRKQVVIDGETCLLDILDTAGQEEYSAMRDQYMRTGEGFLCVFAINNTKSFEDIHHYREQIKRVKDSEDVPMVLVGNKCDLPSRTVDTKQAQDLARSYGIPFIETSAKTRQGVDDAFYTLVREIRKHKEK
Sequence (P62937 whole entry): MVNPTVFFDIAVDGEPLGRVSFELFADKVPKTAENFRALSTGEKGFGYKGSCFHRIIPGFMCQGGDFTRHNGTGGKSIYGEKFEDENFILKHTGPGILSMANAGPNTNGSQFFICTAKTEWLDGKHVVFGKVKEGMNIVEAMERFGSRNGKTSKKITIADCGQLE
experimentSummary: Ras-Raf (BRAF RBD) disruption / FRET / MOA assay, KRAS WT
Format: biochemical
testConditions: read-out: IC50* KRAS WT FRET data
Experimental: The purpose of this biochemical assay is to measure the ability of test compounds to facilitate ternary complex formation between a nucleotide-loaded Ras isoform and cyclophilin A; the resulting ternary complex disrupts binding to a BRAF^RBD construct, inhibiting Ras signaling through a RAF effector. Compound is present in plate wells as a 10-point 3-fold dilution series starting at a final concentration of 30 μM. […]
propertyMeasured: IC50

CC#CC(=O)N1CC[C@H](C(=O)N(C)[C@H](C(=O)N[C@H]2Cc3nc(ns3)-c3ccc4c(c3)c(c(-c3cccnc3[C@H](C)OC)n4CC)CC(C)(C)COC(=O)[C@@H]3CCCN(N3)C2=O)C(C)C)C1 (atropisomer, axis not shown)    > 10000 nM
C=CC(=O)N1CC(OC[C@H](C(=O)N[C@H]2Cc3cc(cc(C(F)F)c3)-c3ccc4c(c3)c(c(-c3cccnc3[C@H](C)OC)n4CC)CC(C)(C)COC(=O)[C@@H]3CCCN(N3)C2=O)C(C)C)C1 (atropisomer, axis not shown)    > 10000 nM
C=CC(=O)N1C[C@H](F)[C@](F)(C(=O)N(C)[C@H](C(=O)N[C@H]2Cc3cccc(c3)-c3ccc4c(c3)c(c(-c3cccnc3[C@H](C)OC)n4CC)CC(C)(C)COC(=O)[C@@H]3CCCN(N3)C2=O)C(C)C)C1 (atropisomer, axis not shown)    100 to 1000 nM

Consider the record given below.
Requested field: IC50. Item: CCn1c(-c2cccnc2[C@H](C)OC)c2c3cc(ccc31)-c1csc(n1)C[C@H](NC(=O)[C@H](C(C)C)N(C)C(=O)N1CCC13CN(C(=O)/C=C/CN1CCOCC1)C3)C(=O)N1CCC[C@H](N1)C(=O)OCC(C)(C)C2 (atropisomer, axis not shown)
100 to 1000 nM
